- Tested on: DMS-114
- measurementDescription: NCI tumour cell line growth inhibition, 48 h
The source made the active and inactive calls. Rule as the data show it: active = GI50 up to about 1.1 µM and inactive = higher.
experimentalReadout: GI50

Bench note, DMS-114: CN(C)/N=N/c1ccc([N+](=O)[O-])cc1C(N)=O , GI50 reads > 100 µM (inactive)

Bench note, DMS-114: CC(C)C(Nc1c2ccccc2[n+](C)c2ccccc12)C(=O)O (stereo not drawn) , GI50 reads > 100 µM (inactive)

Bench note, DMS-114: N=C(NNS(=O)(=O)c1ccccc1)Oc1ccc(Cl)cc1 , GI50 reads 69.5 µM (inactive)

Bench note, DMS-114: C/C(=N/NS(=O)(=O)c1ccc([N+](=O)[O-])cc1)c1cccc[n+]1[O-] , GI50 reads > 100 µM (inactive)

Bench note, DMS-114: C=COCCCOc1ccccc1 , GI50 reads > 100 µM (inactive)

Bench note, DMS-114: Cc1c(N(Cc2ccccc2)Cc2ccccc2)nc(S(C)(=O)=O)nc1S(C)(=O)=O , GI50 reads 1.82 µM (inactive)

Bench note, DMS-114: COC(=O)/C=C/C(=O)C1C(C(=O)OC)C2(C(=O)OC)CCC1(C(=O)OC)N2 (stereo not drawn) , GI50 reads > 100 µM (inactive)

Bench note, DMS-114: O=C1C(c2ccc([N+](=O)[O-])cc2)=[N+]([O-])c2ccc([N+](=O)[O-])cc21 , GI50 reads 30.1 µM (inactive)

Bench note, DMS-114: COc1cc2c(c(OC)c1OC)[C@@H]1CCCCC[C@@H]1CCC2=O , GI50 reads 29.4 µM (inactive)

Bench note, DMS-114: CCCCCCCCCCCOc1ccc(C(=O)C(=O)c2ccc(OCCCCCCCCCCC)c(OCCCCCCCCCCC)c2)cc1OCCCCCCCCCCC , GI50 reads > 100 µM (inactive)

Bench note, DMS-114: CC(=O)Nc1ccc(C(=O)N2N=C(C)/C(=C/c3ccccc3O)C2=O)cc1 , GI50 reads > 100 µM (inactive)

Bench note, DMS-114: COc1cc(Cc2nccc3cc(OC)c(OC)cc23)c(C(C)=O)cc1OC , GI50 reads 5.94 µM (inactive)

Bench note, DMS-114: CC(C)(C)OC(=O)NCC(=O)OCc1ccccc1 , GI50 reads > 100 µM (inactive)

###

- Test system: ACHN
- measurementDescription: NCI tumour cell line growth inhibition, 48 h
Active and inactive are the calls of the source. Cut-off read from the data, not from the text of the source: active = GI50 up to about 1.1 µM and inactive = higher.
What GI50 was measured for each of the following?

Measured GI50 of O=C(O)c1cc2ccccc2c(/N=N\c2cc(C(F)(F)F)ccc2Cl)c1O : 46.5 µM (inactive)

Measured GI50 of COC(=O)C(=O)C(C(=O)C(=O)Nc1ccccc1C(N)=O)c1nc2ccc(C(=O)c3ccccc3)cc2nc1O (stereo not given) : > 100 µM (inactive)

Measured GI50 of Cc1ccc(S(=O)(=O)c2ccc(N)cc2)cc1 : > 100 µM (inactive)

Measured GI50 of COc1cc2nc(-c3cccs3)nc(N3C(c4ccc(O)cc4)=NNC(=O)c4ccccc43)c2cc1OC : 23.7 µM (inactive)

Measured GI50 of COCCc1c(C)c(C#N)c2n(C)c3ccccc3n2c1=O : > 10 µM (inactive)

Measured GI50 of CCCCCCCCCC(O)CC(=O)c1c(O)cccc1O (stereo not given) : 24.1 µM (inactive)

Measured GI50 of O=S(=O)(c1ccccc1)n1cc(C[P+](c2ccccc2)(c2ccccc2)c2ccccc2)c2ccccc21 : 15.3 µM (inactive)

Measured GI50 of N=C(NNS(=O)(=O)c1ccccc1)Oc1ccc(Cl)cc1 : > 100 µM (inactive)

Measured GI50 of CC(=O)OCC1OC(OCCCOP(=S)(OCCC#N)OCC2OC(n3ccc(N)nc3=O)C(OC(=O)c3ccccc3)C2OC(=O)c2ccccc2)C(OC(C)=O)C(OC(C)=O)C1OC(C)=O (stereo not given) : > 100 µM (inactive)

Measured GI50 of O=C(O)CCNS(=O)(=O)c1ccc2ccccc2c1 : > 100 µM (inactive)

###

- Tested on: SNB-75
- measurementDescription: NCI tumour cell line growth inhibition, 48 h
Calls of active or inactive are those of the source. No stated cut-off is given here; in the data, active = GI50 up to about 1.1 µM and inactive = higher.
Please state which outcome applies, choosing from active, inactive

Task: Could you please tell me the result logged for O=C(O)COc1cc(-c2ccccc2)nc2ccccc12 in this assay?
Output: inactive

Task: Could you please tell me the result logged for Nc1c(C(=O)O)nnc2ccc(Cl)cc12 in this assay?
Output: inactive

Task: Could you please tell me the result logged for C/C(=N/NC(=S)Nc1ccc(Cl)cc1)c1cccc(/C(C)=N\NC(=S)Nc2ccc(Cl)cc2)n1 in this assay?
Output: inactive

Task: Could you please tell me the result logged for O=C(O)CCC1(Br)CCCCC(Br)C1=O (configuration not stated) in this assay?
Output: inactive

Task: Could you please tell me the result logged for COc1cccc2c1c1ccc3c(c1n2C)C(=O)C=CC3=O in this assay?
Output: active

Task: Could you please tell me the result logged for CCOC(=O)c1cc(=O)oc2c1N(C)c1ncccc1N2 in this assay?
Output: inactive

Task: Could you please tell me the result logged for COc1ccc(CC2C3=C(CCN2C(=O)C2CCC2)CC2(CC3)OCCO2)cc1O (configuration not stated) in this assay?
Output: inactive

Task: Could you please tell me the result logged for c1ccc(NC2(c3nnnn3C3CCCCC3)CCNCC2)cc1 in this assay?
Output: inactive

Task: Could you please tell me the result logged for COC(CC1(/C=C/O[Si](C(C)C)(C(C)C)C(C)C)C(=O)N(C)c2ccccc21)OC (configuration not stated) in this assay?
Output: inactive

Task: Could you please tell me the result logged for OC1CC(O)c2c(Cl)sc(Cl)c21 (configuration not stated) in this assay?
Output: inactive

Task: Could you please tell me the result logged for C=CS(=O)(=O)CCN1CC1 in this assay?
Output: inactive

Task: Could you please tell me the result logged for c1ccc(/N=C2\c3ccccc3CN2c2ccccn2)nc1 in this assay?
Output: inactive

###

What GI50 was measured for each of the following?
- Tested on: SF-539
- measurementDescription: NCI tumour cell line growth inhibition, 48 h
Calls of active or inactive are those of the source. No stated cut-off is given here; in the data, active = GI50 up to about 1.1 µM and inactive = higher.

Bench note, SF-539: Cn1c(-c2ccc(-c3cc(-c4cccs4)c(-c4cccs4)n3C)cc2)cc(-c2cccs2)c1-c1cccs1 , GI50 reads > 100 µM (inactive)

Bench note, SF-539: O=C(O)CCC1(Br)CCCCC(Br)C1=O (stereo not given) , GI50 reads > 100 µM (inactive)

Bench note, SF-539: COc1cccc([C@H]2C/C(=N\NC(=O)C(=O)N[C@@H](C)c3ccccc3)c3ccccc3N2)c1 , GI50 reads 7.82 µM (inactive)

Bench note, SF-539: C/C(CC(=O)Nc1ccc(Cl)cc1)=N\NC(N)=S , GI50 reads 34.2 µM (inactive)

Bench note, SF-539: COCCc1c(C)c(C#N)c2n(C)c3ccccc3n2c1=O , GI50 reads > 10 µM (inactive)

###

- Test system: OVCAR-4
- measurementDescription: NCI tumour cell line growth inhibition, 48 h
Active and inactive are the calls of the source. Cut-off read from the data, not from the text of the source: active = GI50 up to about 1.1 µM and inactive = higher.
experimentalReadout: GI50

Bench note, OVCAR-4: COc1ccc(-c2nc3ncccn3c2-c2ccc(S(C)(=O)=O)cc2)cc1 , GI50 reads > 100 µM (inactive)

Bench note, OVCAR-4: NCCCCNc1ccc2c(=O)[nH][nH]c(=O)c2c1 , GI50 reads > 100 µM (inactive)

Bench note, OVCAR-4: N=C(N)Nc1ccc(CC(N)C(=O)NCC(=O)C(CC(=O)O)c2ncc(NC(=O)C(F)(F)F)o2)cc1 (stereo unspecified) , GI50 reads > 25 µM (inactive)

Bench note, OVCAR-4: COc1ccc(CC2C3=C(CCN2C(=O)C2CCC2)CC2(CC3)OCCO2)cc1O (stereo unspecified) , GI50 reads 41.4 µM (inactive)

Bench note, OVCAR-4: Nc1nc(Nc2cc(F)c(Cl)c(F)c2)cc(=O)[nH]1 , GI50 reads > 100 µM (inactive)

Bench note, OVCAR-4: Cc1ccc(C)c2c1CC(Cc1ccccc1C(=O)O)C2=O (stereo unspecified) , GI50 reads > 100 µM (inactive)

Bench note, OVCAR-4: O=C(O)c1cc2ccccc2c(/N=N\c2cc(C(F)(F)F)ccc2Cl)c1O , GI50 reads 86.9 µM (inactive)

Bench note, OVCAR-4: CC(=O)N(C)c1ccc(/N=C/N(C)C)cc1 , GI50 reads > 100 µM (inactive)

Bench note, OVCAR-4: OCc1cn(C(c2ccccc2)(c2ccccc2)c2ccccc2)cn1 , GI50 reads > 100 µM (inactive)

Bench note, OVCAR-4: COC1CC(OC2CCC3(C)C(=CCC4C3C(OC(C)=O)C(OC(=O)CC(C)C)C3(C)C(C(C)=O)CCC43O)C2)OC(C)C1OC1CC(OC)C(OC2CC(OC)C(OC3OC(C)C(O)C(OC)C3O)C(C)O2)C(C)O1 (stereo unspecified) , GI50 reads 39.5 µM (inactive)

Bench note, OVCAR-4: CCOC(=O)c1ccc(C(=O)/C(C#N)=C2\CCCN2)n1C , GI50 reads > 100 µM (inactive)

Bench note, OVCAR-4: NC1=NCN(C2OC(CO)C(O)C2O)C(=O)N1 (stereo unspecified) , GI50 reads 139 µM (inactive)

Bench note, OVCAR-4: CC(=O)CC1=C(OC(C)C)C2(OCCO2)C1O (stereo unspecified) , GI50 reads > 100 µM (inactive)

Bench note, OVCAR-4: CN(CCC(=O)O)S(=O)(=O)c1ccccc1 , GI50 reads > 100 µM (inactive)

Bench note, OVCAR-4: CC(C)c1cccc(C(C)C)c1OS(=O)(=O)NC(=O)OC(C(F)(F)F)C(F)(F)F , GI50 reads 50.1 µM (inactive)

Bench note, OVCAR-4: C/C(=N\NC(=O)/C(C#N)=C\c1ccc(N(CCC#N)CCC#N)cc1)c1ccccc1 , GI50 reads > 10 µM (inactive)

Bench note, OVCAR-4: CC1(C)N=c2[nH]cnc2=C(C(N)=O)N1 , GI50 reads > 100 µM (inactive)

Bench note, OVCAR-4: CN(C)c1ccc(-c2c(C#N)c(S)n(NS(=O)(=O)c3ccccc3)c(=O)c2C#N)cc1 , GI50 reads 25.6 µM (inactive)

Bench note, OVCAR-4: O=C1C(=O)N(C2C3CC4CC(C3)CC2C4)C(=O)C(=O)C1c1nc2ccccc2o1 (stereo unspecified) , GI50 reads > 100 µM (inactive)

Bench note, OVCAR-4: COc1cc(S(=O)(=O)Nc2nc(-c3ccc(N4C(=O)CSC4c4cccs4)cc3)cs2)ccc1Cl (stereo unspecified) , GI50 reads 31.3 µM (inactive)

Bench note, OVCAR-4: CCC(O)C1Cc2c(C)cc3c(c2O1)C(=O)c1ccccc1C3=O (stereo unspecified) , GI50 reads 33.3 µM (inactive)

Where do these numbers come from? They come from ChEMBL document CHEMBL1201862.
